In this section, each of the molecules is paired with its reported solubility at 24 h.
# measurementNotes: physchem
# setupConditions: adult fasted state simulated intestinal fluid (FaSSIF-V2), 37 °C, pH 6.5, fassif, thermodynamic from solid
endpointLabel: solubility at 24 h (µg/mL)

molecule="O=C1CN(/N=C/c2ccc([N+](=O)[O-])o2)C(=O)N1 [Nitrofurantoin]" valueunits=µg/mL assayvalue=216
molecule="OCCN(CCO)c1nc(N2CCCCC2)c2nc(N(CCO)CCO)nc(N3CCCCC3)c2n1 [Dipyridamole]" valueunits=µg/mL assayvalue=11.9
